Answer each item with its documented hERG current change (%, negative = inhibition) at 10uM.
Molecular target: human ether-à-go-go-related gene (hERG) potassium channel (human)
Sequence (Q12809 whole entry, looked up): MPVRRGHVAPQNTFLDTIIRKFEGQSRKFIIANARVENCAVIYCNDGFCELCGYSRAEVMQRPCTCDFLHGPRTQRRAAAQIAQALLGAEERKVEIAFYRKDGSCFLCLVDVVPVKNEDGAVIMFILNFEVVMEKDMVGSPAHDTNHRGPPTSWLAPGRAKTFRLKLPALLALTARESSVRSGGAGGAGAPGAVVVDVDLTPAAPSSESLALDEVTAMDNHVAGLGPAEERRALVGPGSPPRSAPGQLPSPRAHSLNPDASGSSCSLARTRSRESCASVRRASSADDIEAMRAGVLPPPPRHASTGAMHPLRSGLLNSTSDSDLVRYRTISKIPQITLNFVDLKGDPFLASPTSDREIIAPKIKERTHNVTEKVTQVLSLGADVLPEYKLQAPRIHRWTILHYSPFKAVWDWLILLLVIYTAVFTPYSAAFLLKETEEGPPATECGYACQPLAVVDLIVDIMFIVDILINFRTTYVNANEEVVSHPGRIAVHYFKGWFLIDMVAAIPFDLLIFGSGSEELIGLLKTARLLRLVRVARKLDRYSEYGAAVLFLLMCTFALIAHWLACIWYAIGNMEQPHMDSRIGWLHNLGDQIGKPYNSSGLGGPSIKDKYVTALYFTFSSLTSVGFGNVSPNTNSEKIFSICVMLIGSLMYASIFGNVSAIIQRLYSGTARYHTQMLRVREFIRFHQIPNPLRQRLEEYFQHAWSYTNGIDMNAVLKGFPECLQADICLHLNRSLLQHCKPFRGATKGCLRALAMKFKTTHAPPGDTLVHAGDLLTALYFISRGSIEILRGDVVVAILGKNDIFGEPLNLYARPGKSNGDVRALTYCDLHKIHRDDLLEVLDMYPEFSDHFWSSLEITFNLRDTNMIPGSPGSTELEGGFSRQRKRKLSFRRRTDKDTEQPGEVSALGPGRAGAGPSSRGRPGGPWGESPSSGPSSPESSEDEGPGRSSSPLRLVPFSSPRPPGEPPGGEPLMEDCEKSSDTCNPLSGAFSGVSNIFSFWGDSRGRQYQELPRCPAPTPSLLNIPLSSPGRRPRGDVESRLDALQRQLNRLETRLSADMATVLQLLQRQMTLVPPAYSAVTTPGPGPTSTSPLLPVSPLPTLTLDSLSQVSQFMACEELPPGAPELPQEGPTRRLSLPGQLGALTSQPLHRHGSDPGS
Assay: primary screen, population patch clamp on CHO cells stably expressing hERG; higher = less effect of the substance
Description: Briefly, Chinese hamster ovary (CHO) cells stably expressing the hERG channel were dislodged from tissue culture flasks and dispensed into PPC plates. […] During the recording, background leak currents were estimated by a 100 ms step to -80 mV from an initial holding potential of -70 mV and subtracted from the subsequent current measurement. The campaign was conducted in two phases using slight differences in recording protocol. […]
Screen size: about 310,000 compounds; about 14,000 (4.5%) showed an effect of 50% or more. The effect is printed as a negative number. This excerpt belongs to a sample that is enriched for strong results.
Give the value in % but do not write % after it.

Q: Give the reported hERG current change (%, negative = inhibition) at 10uM for COc1ccccc1CNC(=O)C(NC(=O)Nc1ccccc1)C(C)C (stereo not drawn) (system: human ether-à-go-go-related gene (hERG) potassium channel (human)).
Result: 13

Q: Request - read-out hERG current change (%, negative = inhibition) at 10uM | tested on human ether-à-go-go-related gene (hERG) potassium channel (human) | compound CSc1scc2c1-c1nc(SCC(=O)C(C)(C)C)ncc1CC2
Result: 11

Q: API: value(readout=hERG current change (%, negative = inhibition) at 10uM, system=human ether-à-go-go-related gene (hERG) potassium channel (human)) for record Cn1c(SCC(=O)N/N=C/C=C/c2ccccc2[N+](=O)[O-])nc2ccccc21
Result: -1.36

Q: Param readout = hERG current change (%, negative = inhibition) at 10uM; param system = human ether-à-go-go-related gene (hERG) potassium channel (human); param query = COc1ccccc1N(Cc1ccccc1)S(=O)(=O)c1cccc(C(=O)Nc2ccccn2)c1 ; response: value
Result: 10.5

Q: Notebook: pull reported hERG current change (%, negative = inhibition) at 10uM for human ether-à-go-go-related gene (hERG) potassium channel (human), entry COCCn1c(SCC(=O)Nc2ccccc2OC)nc2ccccc21
Result: -25.4

Q: # get_value(readout= hERG current change (%, negative = inhibition) at 10uM, system= human ether-à-go-go-related gene (hERG) potassium channel (human)) for CN1CCN(c2ccc(C(N)=O)cc2N)CC1
Result: 6.81

Q: State its hERG current change (%, negative = inhibition) at 10uM on human ether-à-go-go-related gene (hERG) potassium channel (human): Cn1c(SCC(=O)N/N=C/C=C\c2ccccc2[N+](=O)[O-])nc2ccccc21
Result: 10.4

Q: Find hERG current change (%, negative = inhibition) at 10uM (human ether-à-go-go-related gene (hERG) potassium channel (human)) for the entry Br.Cc1cc(C)cc(OCC(=O)NN2Cc3ccccc3C2=N)c1
Result: -11.6

Q: Find hERG current change (%, negative = inhibition) at 10uM (human ether-à-go-go-related gene (hERG) potassium channel (human)) for the entry O=C(O)c1ccccc1SCC(=O)N1CCCCC1
Result: 15.2

Q: Request: hERG current change (%, negative = inhibition) at 10uM, test system human ether-à-go-go-related gene (hERG) potassium channel (human), entry COc1ccc(N2CCN(CCCN)CC2)cc1
Result: 8.6

Q: Request - read-out hERG current change (%, negative = inhibition) at 10uM | tested on human ether-à-go-go-related gene (hERG) potassium channel (human) | compound CCCCCCN1CCN(c2ccc(Cl)cc2)CC1
Result: -66.9

Q: Entry Br.N=C1c2ccccc2CN1NC(=O)COc1ccc(Cl)cc1 , system human ether-à-go-go-related gene (hERG) potassium channel (human): what hERG current change (%, negative = inhibition) at 10uM was measured?
Result: -50.4

Q: I'm curious: which hERG current change (%, negative = inhibition) at 10uM was measured for O=C(NCCOc1ccccc1)c1ccccc1SCC(=O)N1CCCC1 tested on human ether-à-go-go-related gene (hERG) potassium channel (human)?;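 note: peak tail current of the secondary pulse compared with the same well before compound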
Result: 14.9

Q: Missing value: hERG current change (%, negative = inhibition) at 10uM, human ether-à-go-go-related gene (hERG) potassium channel (human), entry CCn1c(SCC(=O)NC(=O)c2ccccc2OC)nc2ccccc21 . Fill in?
Result: -70.8

Q: Test system human ether-à-go-go-related gene (hERG) potassium channel (human); read-out hERG current change (%, negative = inhibition) at 10uM; what value for Br.COc1ccccc1OCC(=O)NN1Cc2ccccc2C1=N ?;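 note: peak tail current of the secondary pulse compared with the same well before compound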
Result: 1.99

Q: Lab note: need hERG current change (%, negative = inhibition) at 10uM for CCn1c(SCC(=O)N/N=C/C=C/c2ccccc2[N+](=O)[O-])nnc1-c1ccc(Cl)cc1 on human ether-à-go-go-related gene (hERG) potassium channel (human), anyone have it?
Result: -15.6

Q: Find hERG current change (%, negative = inhibition) at 10uM (human ether-à-go-go-related gene (hERG) potassium channel (human)) for the entry CCn1c(SCC(=O)N/N=C/C=C\c2ccccc2[N+](=O)[O-])nnc1-c1ccccc1
Result: -67

Q: Checklist item: hERG current change (%, negative = inhibition) at 10uM tested on human ether-à-go-go-related gene (hERG) potassium channel (human), entry CC(=O)Nc1ccccc1C(=O)OCc1ccccc1F , value?;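 note: peak tail current of the secondary pulse compared with the same well before compound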
Result: 3.58

Q: So what hERG current change (%, negative = inhibition) at 10uM did Cc1ccc(OCC(=O)N/N=C\c2cccn2C)c([N+](=O)[O-])c1 get with human ether-à-go-go-related gene (hERG) potassium channel (human)?
Result: -8.65

Q: Could you share what hERG current change (%, negative = inhibition) at 10uM was measured for Br.N#Cc1ccc(OCC(=O)NN2Cc3ccccc3C2=N)cc1 , tested on human ether-à-go-go-related gene (hERG) potassium channel (human)?;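 note: peak tail current of the secondary pulse compared with the same well before compound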
Result: 4.14

Q: What measured hERG current change (%, negative = inhibition) at 10uM is associated with Br.CC(C)(C)c1ccc(OCC(=O)NN2Cc3ccccc3C2=N)cc1 on human ether-à-go-go-related gene (hERG) potassium channel (human)?
Result: -65.5
